test system: Jurkat; assay: MTS proliferation assay, Jurkat; assay type: cell-based, human; details: Homo sapiens, 72 h incubation, read-out: MTS proliferation assay IC 50 Jurkat
MEASURED_PARAMETER: IC50

>>> recorded_value("CC(=O)Nc1nonc1-c1nc2ccccc2n1CC(=O)c1ccc(Cl)cc1")
"100 to 1000 nM"
>>> recorded_value("Nc1nonc1-c1nc2ccccc2n1CC(=O)c1ccccc1")
"10 to 100 nM"
>>> recorded_value("Nc1ccc(C(=O)Cn2c(-c3nonc3NCCC(=O)O)nc3ccccc32)cc1")
"100 to 1000 nM"
>>> recorded_value("Nc1nonc1-c1nc2ccccc2n1CC(=O)/C=C/c1ccccc1")
"100 to 1000 nM"
>>> recorded_value("Nc1cc(C(=O)Cn2c(-c3nonc3N)nc3ccccc32)ccc1Cl")
"10 to 100 nM"
>>> recorded_value("Nc1nonc1-c1nc2ccccc2n1COc1ccc(F)cc1")
"100 to 1000 nM"

---

IC50 by entry:
System: HeLa
Experiment: MTS proliferation assay, HeLa
Format: cell-based, human
Conditions: 72 h incubation, read-out: MTS proliferation assay IC 50 HeLa
Description: Cell lines are cultured in RPMI-1640 tissue culture medium containing either 5% or 10% fetal calf serum, 0.05 mM 2-mercaptoethanol, 2 mM glutamine and penicillin/streptomycin 50 μg/ml (complete medium) (Sigma, Buchs, Switzerland). General growth conditions are 37° C. and 7.5% CO2. […] The assay is performed in 96 well tissue culture plates. […] Subsequently, the plates are shortly shaked and absorption measured with a microplate-reader at 492 nm.
MEASURED_PARAMETER: IC50

>>> recorded_value("Nc1nonc1-c1nc2ccccc2n1CC(=O)c1cc(F)ccc1F [Example 71]")
"0.1 to 1 µM"
>>> recorded_value("Nc1nonc1-c1nc2ccccc2n1CC(=O)c1ccc(Br)cc1 [Example 29]")
"0.01 to 0.1 µM"
>>> recorded_value("N#CCCNc1nonc1-c1nc2ccccc2n1CC(=O)c1ccc([N+](=O)[O-])cc1 [Example 57]")
"0.1 to 1 µM"
>>> recorded_value("Nc1nonc1-c1nc2ccccc2n1CC(=O)c1cccs1 [Example 72]")
"0.1 to 1 µM"
>>> recorded_value("CC(=O)Nc1ccc(C(=O)Cn2c(-c3nonc3N)nc3ccccc32)cc1 [Example 60]")
"0.1 to 1 µM"
>>> recorded_value("N#CCCNc1nonc1-c1nc2ccccc2n1CC(=O)c1ccc2ccccc2c1 [Example 46]")
"0.01 to 0.1 µM"
>>> recorded_value("COc1cccc(C(Cn2c(-c3nonc3N)nc3ccccc32)=NO)c1 (mixture of isomers) [Example 24]")
"> 1 µM"
>>> recorded_value("COc1ccc(C(=O)Cn2c(-c3nonc3N)nc3ccccc32)cc1 [Example 19]")
"0.1 to 1 µM"
>>> recorded_value("Nc1nonc1-c1nc2ccccc2n1CC(=O)c1ccc(F)cc1 [Example 67]")
"0.1 to 1 µM"
>>> recorded_value("Nc1nonc1-c1nc2ccccc2n1CC(=NO)c1ccccc1 (mixture of isomers) [Example 17]")
"> 1 µM"
>>> recorded_value("Nc1nonc1-c1nc2ccccc2n1CC(=O)c1cccc(Cl)c1 [Example 35]")
"0.01 to 0.1 µM"
>>> recorded_value("CCc1ccc(C(=O)Cn2c(-c3nonc3NCCC#N)nc3ccccc32)cc1 [Example 56]")
"0.01 to 0.1 µM"
>>> recorded_value("N#CCCNc1nonc1-c1nc2ccccc2n1COc1ccc(Br)cc1 [Example 94]")
"0.01 to 0.1 µM"
>>> recorded_value("CON=C(Cn1c(-c2nonc2N)nc2ccccc21)c1ccc(-c2ccccc2)cc1 (mixture of isomers) [Example 28]")
"> 1 µM"
>>> recorded_value("Nc1nonc1-c1nc2ccccc2n1CC(=NO)c1cccc(Cl)c1 (mixture of isomers) [Example 36]")
"0.01 to 0.1 µM"
>>> recorded_value("Cl.Nc1ccc(C(=O)Cn2c(-c3nonc3N)nc3ccccc32)cc1 [Example 51]")
"0.01 to 0.1 µM"
>>> recorded_value("CCN(CC)c1ccc(C(=O)Cn2c(-c3nonc3N)nc3ccccc32)cc1 [Example 39]")
"> 1 µM"
>>> recorded_value("COCCOc1ccc(C(=O)Cn2c(-c3nonc3N)nc3ccccc32)cc1 [Example 77]")
"0.1 to 1 µM"

---

test system: HT1080; assay: MTS proliferation assay, HT1080; format: cell-based, human; conditions: HT1080, 72 h incubation; read-out: MTS proliferation assay IC 50 HT1080
MEASURED_PARAMETER: IC50

>>> recorded_value("COc1ccc(OCn2c(-c3nonc3N)nc3ccccc32)cc1 [Example 90]")
"100 to 1000 nM"
>>> recorded_value("COc1cc2nc(-c3nonc3N)n(CC(=O)c3ccc(Br)cc3)c2cc1OC [Example 115]")
"> 1000 nM"
>>> recorded_value("Nc1nonc1-c1nc2ccccc2n1CC(=NO)c1cccc(Cl)c1 (mixture of isomers) [Example 36]")
"100 to 1000 nM"
>>> recorded_value("Nc1nonc1-c1nc2ccccc2n1CC(=O)c1ccc2c(c1)OCO2 [Example 45]")
"10 to 100 nM"
>>> recorded_value("N#CCCNc1nonc1-c1nc2ccccc2n1CC(=O)c1ccc(N)cc1.O=C(O)C(=O)O [Example 61]")
"10 to 100 nM"
>>> recorded_value("Cc1cc2nc(-c3nonc3N)n(CC(=O)c3ccc(Cl)cc3)c2cc1C [Example 110]")
"> 1000 nM"
>>> recorded_value("COc1ccc(C(=O)Cn2c(-c3nonc3NCCC#N)nc3ccccc32)cc1N [Example 69]")
"100 to 1000 nM"
>>> recorded_value("N#CCCNc1nonc1-c1nc2ccccc2n1COc1ccccc1 [Example 95]")
"100 to 1000 nM"
>>> recorded_value("Nc1ccc(C(=O)Cn2c(-c3nonc3N)nc3ccccc32)cc1[N+](=O)[O-] [Example 65]")
"< 10 nM"
>>> recorded_value("COc1cc(C(=O)Cn2c(-c3nonc3N)nc3ccccc32)ccc1OCc1ccccc1 [Example 73]")
"100 to 1000 nM"
>>> recorded_value("Cl.Nc1ccc(OCn2c(-c3nonc3N)nc3ccccc32)cc1 [Example 100]")
"> 1000 nM"
>>> recorded_value("N#Cc1ccc(C(=O)Cn2c(-c3nonc3N)nc3ccccc32)cc1 [Example 63]")
"> 1000 nM"
>>> recorded_value("N#CCCNc1nonc1-c1nc2ccccc2n1CC(=O)c1ccc(N)cc1 [Example 58]")
"< 10 nM"
>>> recorded_value("CCc1ccc(C(=O)Cn2c(-c3nonc3NCCC#N)nc3ccccc32)cc1 [Example 56]")
"10 to 100 nM"
>>> recorded_value("COc1cc(C(=O)Cn2c(-c3nonc3N)nc3ccccc32)ccc1OC(C)=O [Example 75]")
"100 to 1000 nM"
>>> recorded_value("Nc1nonc1-c1nc2ccccc2n1CC(=O)c1ccccn1 [Example 59]")
"100 to 1000 nM"
>>> recorded_value("Cc1ccc(C(=O)Cn2c(-c3nonc3N)nc3ccccc32)cc1 [Example 44]")
"10 to 100 nM"
>>> recorded_value("Nc1nonc1-c1nc2ccccc2n1CC(=O)c1ccc(Cl)nc1 [Example 70]")
"< 10 nM"

---

tested on: HT1080; assay: MTS proliferation assay, HT1080; format: cell-based, human; conditions: HT1080, 72 h incubation; read-out: MTS proliferation assay IC 50 HT1080
IC50 by entry:
MEASURED_PARAMETER: IC50

>>> recorded_value("Nc1ccc(C(=O)Cn2c(-c3nonc3N)nc3ccccc32)cn1 [Example 78]")
"< 10 nM"
>>> recorded_value("Cc1ccc(OCn2c(-c3nonc3N)nc3ccccc32)cc1C [Example 101]")
"10 to 100 nM"
>>> recorded_value("CC(C)n1c(-c2nonc2N)nc2ccccc21 [A, reference compound]")
"> 1000 nM"
>>> recorded_value("COc1cc2nc(-c3nonc3N)n(CC(=O)c3ccccc3)c2cc1OC [Example 113]")
"> 1000 nM"
>>> recorded_value("Cc1ccc(C(=O)Cn2c(-c3nonc3NCCC#N)nc3ccccc32)cc1C [Example 54]")
"10 to 100 nM"
>>> recorded_value("Nc1nonc1-c1nc2ccccc2n1COc1ccc(Cl)cc1 [Example 88]")
"100 to 1000 nM"
>>> recorded_value("COc1cccc(/C=C/C(=O)Cn2c(-c3nonc3N)nc3ccccc32)c1 [Example 120]")
"> 1000 nM"
>>> recorded_value("Nc1nonc1-c1nc2ccccc2n1COc1ccc(C(F)(F)F)cc1 [Example 91]")
"100 to 1000 nM"
>>> recorded_value("Nc1nonc1-c1nc2ccccc2n1COc1ccc(Br)cc1 [Example 89]")
"10 to 100 nM"

---

Hoechst 33342 nuclear staining score by entry:
tested on: adherent cells or suspension cells; experiment: Hoechst 33342 nuclear staining (fraction of apoptotic nuclei); format: cell-based; set-up: key: 0 relating to no activity; 1 relating to weak activity comprising less than 70% of the cells; score 2 relating to strong activity comprising more than 70% of the cells; conditions: MRC5, conc 1 μm
MEASURED_PARAMETER: Hoechst 33342 nuclear staining score

>>> recorded_value("CCc1ccc(C(=O)Cn2c(-c3nonc3N)nc3ccccc32)cc1")
0
>>> recorded_value("Cc1cc2nc(-c3nonc3N)n(CC(=O)c3ccc(Cl)cc3)c2cc1C")
0
